Reported pKd values for the following binders.
- target.desc: T1, human IgG1 (human, UniProt P01857-1 1-330 = IgG part)
- T1 construct: Calbiochem; human plasma IgG1 in anisotropy studies, myeloma-derived (cat. 400120) in batch/column studies; also called hIgG1
- experiment.summary: fluorescence anisotropy; pH 7.4 PBS
- Procedure: All measurements were performed in 384 well microplates with 20 nM fluorescein-labeled peptide and various concentrations of the IgG isoform in a volume of between 10 and 20 μl using a Tecan Polarion fluorescence polarization plate reader. All binding buffers included 0.01% (v/v) Tween 20 to prevent peptide adsorption to the microplate. The binding mixture was equilibrated for 10 minutes in the microplate at 30° C. prior to performing the measurement.
pKd: −log10 of the molar value. Positions of bridges follow the written chain, without caps; N, C: chain ends.

binder	pKd
Ac-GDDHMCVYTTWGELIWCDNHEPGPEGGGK-NH2 (disulfide 6-17 (inferred), Synthetic disulfide-cyclised peptide) [DX249]	5.85
Ac-AGYYWCNYWGLCPDQGTPGPEGGGK-NH2 (not fully specified (bridges); printed as Ac-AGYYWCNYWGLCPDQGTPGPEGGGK-NH2; cysteine pairing not given here; also: fluorescein-labelled form in anisotropy assays, place not given here, Fluorescein-labelled in anisotropy assays; immobilised in batch assays) [DX254]	6.85
Ac-GDDDHCYWFREWFNSECPHGEPGPEGGGK-NH2 (not fully specified (bridges); printed as Ac-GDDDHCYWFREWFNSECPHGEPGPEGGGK-NH2; cysteine pairing not given here; also: fluorescein-labelled form in anisotropy assays, place not given here, Fluorescein-labelled in anisotropy assays; immobilised in batch/column assays) [DX252]	5.72
